test: Pharmacokinetics after single and multiple doses, part 1; type: in vivo, human; settings: human, plasma, oral, 10 mg, tmax,ss, young, 10 mg QD, multiple dose, median and range (minimum, maximum)
observed-property: Tmax
A complete answer gives the number and then names the unit.

Request: Value lookup for Tmax; key = C[C@@H](Oc1ccc(S(C)(=O)=O)cc1C(=O)N1C[C@@H]2C[C@]2(c2cc(C(F)(F)F)on2)C1)C(F)(F)F
Response: 4.5 h

====

experiment: Pharmacokinetics after single and multiple doses, part 1; assay type: in vivo, human; settings: human, plasma, oral, 50 mg, tmax, elderly, 50 mg QD, single dose, median and range (minimum, maximum)
observed-property: Tmax (h)
Give bare numbers, in h.

Request: Need Tmax of C[C@@H](Oc1ccc(S(C)(=O)=O)cc1C(=O)N1C[C@@H]2C[C@]2(c2cc(C(F)(F)F)on2)C1)C(F)(F)F , thanks.
Response: 4.5

Data provenance: paper PMC6061410
